experiment: Mouse blood levels; details: mouse, blood, po, 100 mg/kg, T 1/2, 100 mg/kg p.o.

- compound: "C/C=C\\C1=C(C(=O)O)N2C(=O)C(NC(=O)[C@H](N)c3cccc(O)c3)[C@H]2SC1 (stereo partly shown)"
  half-life (h): 1.7

---

test: Mouse blood levels; details: mouse, blood, po, 20 mg/kg
Quick reference for concentration at 3 h among some compounds
assay readout: concentration at 3 h (ng/mL)

- compound: "C/C=C\\C1=C(C(=O)O)N2C(=O)C(NC(=O)[C@H](N)c3ccc(O)cc3)[C@H]2SC1 (some centres unmarked) [BMY-28100]"
  value observed: 2500
- compound: "C/C=C\\C1=C(C(=O)O)N2C(=O)C(NC(=O)[C@H](N)c3cccc(O)c3)[C@H]2SC1 (some centres unmarked) [BMY-28272]"
  value observed: 620

---

tested on: S. aureus A15092; experiment: MIC, agar dilution technique (Mueller-Hinton Agar); format: cell-based; details: Staphylococcus aureus, Gp-Ib, penicillin resistant, read-out: Minimum Inhibitory Concentration

- molecule: "C/C=C\\C1=C(C(=O)O)N2C(=O)C(NC(=O)[C@H](N)c3cccc(O)c3)[C@H]2SC1 (stereo partly shown) [BMY-28272]"
  MIC: "1.6 µg/mL"
- molecule: "C/C=C\\C1=C(C(=O)O)N2C(=O)C(NC(=O)[C@H](N)c3ccc(O)cc3)[C@H]2SC1 (stereo partly shown) [BMY-28100]"
  MIC: "1.6 µg/mL"
- molecule: "N[C@@H](C(=O)N[C@@H]1C(=O)N2C(C(=O)O)=C(Cl)CS[C@H]12)c1ccccc1 [cefaclor]"
  MIC: "6.3 µg/mL"
- molecule: "CC1=C(C(=O)O)N2C(=O)[C@@H](NC(=O)[C@H](N)c3ccccc3)[C@H]2SC1 [cephalexin]"
  MIC: "6.3 µg/mL"

---

Let's look at some molecules and their measured dose excreted at 4 h.
assay: Mouse urinary recovery; type: in vivo, mice; settings: mouse, urine, po, 20 mg/kg, 2-4 hr
assay readout: dose excreted at 4 h (%)

- molecule: "C/C=C\\C1=C(C(=O)O)N2C(=O)C(NC(=O)[C@H](N)c3cccc(O)c3)[C@H]2SC1 (stereo partly drawn) [BMY-28272]"
  value observed: 4.4
- molecule: "N[C@@H](C(=O)N[C@@H]1C(=O)N2C(C(=O)O)=C(Cl)CS[C@H]12)c1ccccc1 [cefaclor]"
  value observed: 6.7
- molecule: "C/C=C\\C1=C(C(=O)O)N2C(=O)C(NC(=O)[C@H](N)c3ccc(O)cc3)[C@H]2SC1 (stereo partly drawn) [BMY-28100]"
  value observed: 5.3

---

These compounds were tested on S. aureus Terajima; MIC is the recorded read-out.
assay readout: MIC (µg/mL)

- compound: "N[C@@H](C(=O)N[C@@H]1C(=O)N2C(C(=O)O)=C(Cl)CS[C@H]12)c1ccccc1 [cefaclor]"
  assay readout: "MIC"
  unit descriptor: "µg/mL"
  value observed: 0.4
- compound: "C/C=C\\C1=C(C(=O)O)N2C(=O)C(NC(=O)[C@H](N)c3cccc(O)c3)[C@H]2SC1 (stereo partly shown) [BMY-28272]"
  assay readout: "MIC"
  unit descriptor: "µg/mL"
  value observed: 0.4
- compound: "C/C=C\\C1=C(C(=O)O)N2C(=O)C(NC(=O)[C@H](N)c3ccc(O)cc3)[C@H]2SC1 (stereo partly shown) [BMY-28100]"
  assay readout: "MIC"
  unit descriptor: "µg/mL"
  value observed: 0.4
- compound: "CC1=C(C(=O)O)N2C(=O)[C@@H](NC(=O)[C@H](N)c3ccccc3)[C@H]2SC1 [cephalexin]"
  assay readout: "MIC"
  unit descriptor: "µg/mL"
  value observed: 1.6

---

compounds and their reported concentration at 2 h
test: Mouse blood levels; conditions: mouse, blood, po, 100 mg/kg

- compound: "C/C=C\\C1=C(C(=O)O)N2C(=O)C(NC(=O)[C@H](N)c3ccc(O)cc3)[C@H]2SC1 (some centres unmarked) [BMY-28100]"
  unit descriptor: "ng/mL"
  concentration at 2 h: 6500
- compound: "C/C=C\\C1=C(C(=O)O)N2C(=O)C(NC(=O)[C@H](N)c3cccc(O)c3)[C@H]2SC1 (some centres unmarked) [BMY-28272]"
  unit descriptor: "ng/mL"
  concentration at 2 h: 16000

---

Items are presented alongside their recorded concentration at 0.5 h.
experiment: Mouse blood levels; conditions: mouse, blood, po, 20 mg/kg

- compound: "C/C=C\\C1=C(C(=O)O)N2C(=O)C(NC(=O)[C@H](N)c3ccc(O)cc3)[C@H]2SC1 (some centres unmarked)"
  concentration at 0.5 h, ng/mL: 9300
- compound: "C/C=C\\C1=C(C(=O)O)N2C(=O)C(NC(=O)[C@H](N)c3cccc(O)c3)[C@H]2SC1 (some centres unmarked)"
  concentration at 0.5 h, ng/mL: 7700

---

assay: Mouse blood levels; conditions: mouse, blood, im, 20 mg/kg
Here, each record is paired with measured concentration at 40 min data.
assay readout: concentration at 40 min

- compound: "C/C=C\\C1=C(C(=O)O)N2C(=O)C(NC(=O)[C@H](N)c3ccc(O)cc3)[C@H]2SC1 (some centres unmarked)"
  assay readout: "concentration at 40 min"
  value observed: "8500 ng/mL"
- compound: "C/C=C\\C1=C(C(=O)O)N2C(=O)C(NC(=O)[C@H](N)c3cccc(O)c3)[C@H]2SC1 (some centres unmarked)"
  assay readout: "concentration at 40 min"
  value observed: "12000 ng/mL"

---

assay: Mouse blood levels; details: mouse, blood, po, 20 mg/kg, AUC, 20 mg/kg p.o.; another experiment (footnote)

- compound: "C/C=C\\C1=C(C(=O)O)N2C(=O)C(NC(=O)[C@H](N)c3cccc(O)c3)[C@H]2SC1 (stereo partly shown) [BMY-28272]"
  AUC, ng·h/mL: 17000

---

test: Mouse blood levels; conditions: mouse, blood, po, 100 mg/kg, AUC, 100 mg/kg p.o.
assay readout: AUC (ng·h/mL)

- compound: "C/C=C\\C1=C(C(=O)O)N2C(=O)C(NC(=O)[C@H](N)c3cccc(O)c3)[C@H]2SC1 (stereo partly shown) [BMY-28272]"
  assay readout: "AUC"
  unit descriptor: "ng·h/mL"
  value observed: 71000

---

Overview of reported concentration at 1 h across a group of compounds:
assay: Mouse blood levels; settings: mouse, blood, po, 20 mg/kg

- compound: "C/C=C\\C1=C(C(=O)O)N2C(=O)C(NC(=O)[C@H](N)c3cccc(O)c3)[C@H]2SC1 (some centres unmarked) [BMY-28272]"
  unit descriptor: "ng/mL"
  concentration at 1 h: 4200
- compound: "C/C=C\\C1=C(C(=O)O)N2C(=O)C(NC(=O)[C@H](N)c3ccc(O)cc3)[C@H]2SC1 (some centres unmarked) [BMY-28100]"
  unit descriptor: "ng/mL"
  concentration at 1 h: 6900

---

assay: Mouse blood levels; conditions: mouse, blood, po, 20 mg/kg, T 1/2, 20 mg/kg p.o.
assay readout: half-life (min)

- compound: "C/C=C\\C1=C(C(=O)O)N2C(=O)C(NC(=O)[C@H](N)c3cccc(O)c3)[C@H]2SC1 (stereo partly shown)"
  value observed: 51.6

---

experiment: Mouse blood levels; details: mouse, blood, po, 100 mg/kg
assay readout: concentration at 4 h (ng/mL)

- compound: "C/C=C\\C1=C(C(=O)O)N2C(=O)C(NC(=O)[C@H](N)c3ccc(O)cc3)[C@H]2SC1 (some centres unmarked)"
  assay readout: "concentration at 4 h"
  value observed: 3300
- compound: "C/C=C\\C1=C(C(=O)O)N2C(=O)C(NC(=O)[C@H](N)c3cccc(O)c3)[C@H]2SC1 (some centres unmarked)"
  assay readout: "concentration at 4 h"
  value observed: 6300

---

test: in vivo; settings: mouse, in vivo, im, 20 mg/kg, T 1/2

- compound: "C/C=C\\C1=C(C(=O)O)N2C(=O)C(NC(=O)[C@H](N)c3ccc(O)cc3)[C@H]2SC1 (stereo partly shown) [BMY-28100]"
  half-life / min: 31.2

---

assay: Mouse urinary recovery; format: in vivo, mice; conditions: mouse, urine, po, 20 mg/kg, 4-6 hr

- compound: "N[C@@H](C(=O)N[C@@H]1C(=O)N2C(C(=O)O)=C(Cl)CS[C@H]12)c1ccccc1 [cefaclor]"
  dose excreted at 6 h (%): 0.3
- compound: "C/C=C\\C1=C(C(=O)O)N2C(=O)C(NC(=O)[C@H](N)c3ccc(O)cc3)[C@H]2SC1 (stereo partly drawn) [BMY-28100]"
  dose excreted at 6 h (%): 1.3
- compound: "C/C=C\\C1=C(C(=O)O)N2C(=O)C(NC(=O)[C@H](N)c3cccc(O)c3)[C@H]2SC1 (stereo partly drawn) [BMY-28272]"
  dose excreted at 6 h (%): 0.4
